All values here come from the RNAGym collection of RNA variant scans (doi:10.7554/elife.80360).

B1: Hairpin Ribozyme (parent)
chain: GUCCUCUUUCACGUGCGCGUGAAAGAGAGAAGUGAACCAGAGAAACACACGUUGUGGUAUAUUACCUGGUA

- Variants of: B1
- method: self-cleavage, relative activity (ratio to wild type); higher = more cleavage; co-transcriptional
Recorded self-cleavage determines the label; the label ranges are lowest = under 0.2, middle = from 0.2 up to 0.3, highest = 0.3 and over

Q: Class label required: A28G A41U
Result: highest

Q: Please report the category associated with G15C A45U , nothing else.
Result: lowest

Q: Please indicate the class for A28C A39G based on its self-cleavage.
Result: lowest

Q: Please indicate the class for A47U U52A based on its self-cleavage.
Result: lowest

Q: Kindly state the category for this variant: G42A G57A
Result: lowest

Q: # bin label for C12A C65U
Result: highest

Q: Which bin, given its self-cleavage, does C18U U67C occupy?
Result: middle

Q: State the band of U8G U55C
Result: middle

Q: # bin lookup: classify C3A C16A by its self-cleavage
Result: highest
